Assay: Pharmacokinetics of ketamine and its metabolite hydroxynorketamine in mouse serum, hippocampus and frontal cortex (noncompartmental analysis, LC-MS/MS)
Format: in vivo, C57BL/6J mice
Conditions: male, C57BL/6J, mouse, hippocampus, ip, 10 mg/kg, hippocampus; CRS mice; ketamine 10 mg/kg i.p.; read-out: MRT (converted)
experimentalEndpoint: MRT (min)
Numbers only here, please. The scale is min.

Name the recorded MRT of the compound listed here: CNC1(c2ccccc2Cl)CCCCC1=O (stereo not shown) [Ketamine, ketamine] 28.5

====

Assay: Pharmacokinetics of ketamine and its metabolite hydroxynorketamine in mouse serum, hippocampus and frontal cortex (noncompartmental analysis, LC-MS/MS)
Format: in vivo, C57BL/6J mice
Settings: male, C57BL/6J, mouse, frontal cortex, ip, 10 mg/kg, frontal cortex; CRS mice; ketamine 10 mg/kg i.p.; read-out: Cmax
experimentalEndpoint: Cmax (ng/g)
Kindly provide the numeric value in ng/g only, without the unit symbol.

Return Cmax for the following molecule: CNC1(c2ccccc2Cl)CCCCC1=O (stereo not shown) 3030

====

Assay: Pharmacokinetics of ketamine and its metabolite hydroxynorketamine in mouse serum, hippocampus and frontal cortex (noncompartmental analysis, LC-MS/MS)
Format: in vivo, C57BL/6J mice
Conditions: male, C57BL/6J, mouse, frontal cortex, ip, 10 mg/kg, frontal cortex; CRS + ZnD mice; ketamine 10 mg/kg i.p.; read-out: Cmax
experimentalEndpoint: Cmax

Retrieve Cmax measured for CNC1(c2ccccc2Cl)CCCCC1=O (stereo not shown) and print it. 2650 ng/g

====

Experiment: Pharmacokinetics of ketamine and its metabolite hydroxynorketamine in mouse serum, hippocampus and frontal cortex (noncompartmental analysis, LC-MS/MS)
Format: in vivo, C57BL/6J mice
Conditions: male, C57BL/6J, mouse, serum, ip, 10 mg/kg, serum; CRS + ZnD mice; ketamine 10 mg/kg i.p.
experimentalEndpoint: CL/F (mL/min/kg)
Use mL/min/kg as the unit, but write only the number.

Check the records and state CL/F for CNC1(c2ccccc2Cl)CCCCC1=O (stereo not shown) [Ketamine, ketamine] 220

====

Assay: Pharmacokinetics of ketamine and its metabolite hydroxynorketamine in mouse serum, hippocampus and frontal cortex (noncompartmental analysis, LC-MS/MS)
Format: in vivo, C57BL/6J mice
Settings: male, C57BL/6J, mouse, hippocampus, ip, 10 mg/kg, hippocampus; Control mice; ketamine 10 mg/kg i.p.; read-out: λz (converted)
experimentalEndpoint: k el (s⁻¹)
Supply the numeric figure in s⁻¹, leaving out any unit text.

Note down k el recorded for CNC1(c2ccccc2Cl)CCCCC1=O (stereo not shown) 0.000317

====

Test: Pharmacokinetics of ketamine and its metabolite hydroxynorketamine in mouse serum, hippocampus and frontal cortex (noncompartmental analysis, LC-MS/MS)
Type: in vivo, C57BL/6J mice
Conditions: male, C57BL/6J, mouse, serum, ip, 10 mg/kg, serum; CRS mice; ketamine 10 mg/kg i.p.; read-out: MRT (converted)
experimentalEndpoint: MRT (min)
Write the number in min without appending the unit.

Answer with reported MRT of CNC1(c2ccccc2Cl)CCCCC1=O (stereo not shown) 29.8

====

Test: Pharmacokinetics of ketamine and its metabolite hydroxynorketamine in mouse serum, hippocampus and frontal cortex (noncompartmental analysis, LC-MS/MS)
Type: in vivo, C57BL/6J mice
Conditions: male, C57BL/6J, mouse, frontal cortex, ip, 10 mg/kg, frontal cortex; CRS + ZnD mice; ketamine 10 mg/kg i.p.; read-out: MRT (converted)
experimentalEndpoint: MRT (min)
API: value field is a number in min; no unit string.

// Input: CNC1(c2ccccc2Cl)CCCCC1=O (stereo not shown) [Ketamine, ketamine] . Output its MRT only. 28.8

====

Assay: Pharmacokinetics of ketamine and its metabolite hydroxynorketamine in mouse serum, hippocampus and frontal cortex (noncompartmental analysis, LC-MS/MS)
Type: in vivo, C57BL/6J mice
Conditions: male, C57BL/6J, mouse, serum, ip, 10 mg/kg, serum; CRS + ZnD mice; ketamine 10 mg/kg i.p.; read-out: MRT (converted)
experimentalEndpoint: MRT (min)
Kindly answer with a numeric value in min, unit omitted.

Tell us which MRT value is on record for CNC1(c2ccccc2Cl)CCCCC1=O (stereo not shown) 22

====

Assay: Pharmacokinetics of ketamine and its metabolite hydroxynorketamine in mouse serum, hippocampus and frontal cortex (noncompartmental analysis, LC-MS/MS)
Format: in vivo, C57BL/6J mice
Conditions: male, C57BL/6J, mouse, serum, ip, 10 mg/kg, serum; CRS mice; ketamine 10 mg/kg i.p.; read-out: Vz/F
experimentalEndpoint: Vd/F (L/kg)
Give the value in L/kg but do not write L/kg after it.

Using the record for CNC1(c2ccccc2Cl)CCCCC1=O (stereo not shown) [Ketamine, ketamine] , state its measured Vd/F. 14.6

====

Test: Pharmacokinetics of ketamine and its metabolite hydroxynorketamine in mouse serum, hippocampus and frontal cortex (noncompartmental analysis, LC-MS/MS)
Type: in vivo, C57BL/6J mice
Conditions: male, C57BL/6J, mouse, hippocampus, ip, 10 mg/kg, hippocampus; CRS mice; ketamine 10 mg/kg i.p.; read-out: Cmax
experimentalEndpoint: Cmax (ng/g)
Unit ng/g implied. Number only.

Give the measured Cmax for CNC1(c2ccccc2Cl)CCCCC1=O (stereo not shown) 3180

====

Experiment: Pharmacokinetics of ketamine and its metabolite hydroxynorketamine in mouse serum, hippocampus and frontal cortex (noncompartmental analysis, LC-MS/MS)
Format: in vivo, C57BL/6J mice
Settings: male, C57BL/6J, mouse, serum, ip, 10 mg/kg, serum; Control mice; ketamine 10 mg/kg i.p.; read-out: MRT (converted)
experimentalEndpoint: MRT (min)
All answers are understood in min, so give the number only.

Give me measured MRT, please, for this compound: CNC1(c2ccccc2Cl)CCCCC1=O (stereo not shown) 34.2

====

Assay: Pharmacokinetics of ketamine and its metabolite hydroxynorketamine in mouse serum, hippocampus and frontal cortex (noncompartmental analysis, LC-MS/MS)
Assay type: in vivo, C57BL/6J mice
Details: male, C57BL/6J, mouse, hippocampus, ip, 10 mg/kg, hippocampus; Control mice; ketamine 10 mg/kg i.p.; read-out: Cmax
experimentalEndpoint: Cmax

Using known records, supply Cmax for CNC1(c2ccccc2Cl)CCCCC1=O (stereo not shown) [Ketamine, ketamine] 2990 ng/g

====

Assay: Pharmacokinetics of ketamine and its metabolite hydroxynorketamine in mouse serum, hippocampus and frontal cortex (noncompartmental analysis, LC-MS/MS)
Type: in vivo, C57BL/6J mice
Conditions: male, C57BL/6J, mouse, serum, ip, 10 mg/kg; CRS mice; ketamine 10 mg/kg i.p.
experimentalEndpoint: CL/F (mL/min/kg)
Reply numerically in mL/min/kg, unit not repeated.

Return the recorded CL/F value; entry: CNC1(c2ccccc2Cl)CCCCC1=O (stereo not shown) 270

====

Test: Pharmacokinetics of ketamine and its metabolite hydroxynorketamine in mouse serum, hippocampus and frontal cortex (noncompartmental analysis, LC-MS/MS)
Type: in vivo, C57BL/6J mice
Settings: male, C57BL/6J, mouse, frontal cortex, ip, 10 mg/kg, frontal cortex; CRS mice; ketamine 10 mg/kg i.p.; read-out: λz (converted)
experimentalEndpoint: k el (s⁻¹)
Give your result in s⁻¹ as a bare value.

For the molecule CNC1(c2ccccc2Cl)CCCCC1=O (stereo not shown) [Ketamine, ketamine] , give its reported k el. 0.000333

====

Assay: Pharmacokinetics of ketamine and its metabolite hydroxynorketamine in mouse serum, hippocampus and frontal cortex (noncompartmental analysis, LC-MS/MS)
Format: in vivo, C57BL/6J mice
Conditions: male, C57BL/6J, mouse, serum, ip, 10 mg/kg, serum; CRS + ZnD mice; ketamine 10 mg/kg i.p.; read-out: Vz/F
experimentalEndpoint: Vd/F

Report Vd/F, nothing else, for this compound: CNC1(c2ccccc2Cl)CCCCC1=O (stereo not shown) [Ketamine, ketamine] 11.6 L/kg

====

Experiment: Pharmacokinetics of ketamine and its metabolite hydroxynorketamine in mouse serum, hippocampus and frontal cortex (noncompartmental analysis, LC-MS/MS)
Type: in vivo, C57BL/6J mice
Details: male, C57BL/6J, mouse, serum, ip, 10 mg/kg, serum; CRS + ZnD mice; ketamine 10 mg/kg i.p.; read-out: Cmax
experimentalEndpoint: Cmax (ng/mL)
Express the result in ng/mL but write the number alone.

Please report the measured Cmax for CNC1(c2ccccc2Cl)CCCCC1=O (stereo not shown) [Ketamine, ketamine] 2150

====

Experiment: Pharmacokinetics of ketamine and its metabolite hydroxynorketamine in mouse serum, hippocampus and frontal cortex (noncompartmental analysis, LC-MS/MS)
Format: in vivo, C57BL/6J mice
Conditions: male, C57BL/6J, mouse, serum, ip, 10 mg/kg, serum; CRS mice; ketamine 10 mg/kg i.p.; read-out: Cmax
experimentalEndpoint: Cmax (ng/mL)
Reply numerically in ng/mL, unit not repeated.

Return Cmax (reported value) for this molecule: CNC1(c2ccccc2Cl)CCCCC1=O (stereo not shown) 1120

====

Assay: Pharmacokinetics of ketamine and its metabolite hydroxynorketamine in mouse serum, hippocampus and frontal cortex (noncompartmental analysis, LC-MS/MS)
Assay type: in vivo, C57BL/6J mice
Details: male, C57BL/6J, mouse, hippocampus and frontal cortex / serum, intraperitoneal, 10 mg/kg, control and stress (CRS) groups; Hp and FC; read-out: tissue-to-serum Cmax and AUC ratios for the parent drug
experimentalEndpoint: Kp

Write down Kp measured for item CNC1(c2ccccc2Cl)CCCCC1=O (stereo not shown) 2.45 to 2.84

Origin of values: paper PMC9448861
